Test system: MDA-MB-231 complex spheroids, growth inhibition
Test: Anticancer human tumor MDA-MB-231 cell line growth inhibition [Asc];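 also: spheroids exposed to compounds for 7 days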
Details: curve of first compound; second compound 0.03 µM
pIC50: −log10 of the molar value.

COMPOUND	pIC50
NC1CCC(NC2CC2c2ccccc2)CC1 (stereo not drawn) + CCN1C(C(=O)NC23CCC(C(=O)O)(CC2)CC3)C(c2cccc(Cl)c2F)C2(C(=O)Nc3cc(Cl)ccc32)C12CCCCC2	< 7.00
Cn1ncnc1[C@H]1c2n[nH]c(=O)c3cc(F)cc(c23)N[C@@H]1c1ccc(F)cc1 + CCN1C(C(=O)NC23CCC(C(=O)O)(CC2)CC3)C(c2cccc(Cl)c2F)C2(C(=O)Nc3cc(Cl)ccc32)C12CCCCC2	< 7.00
CCN1CCN(Cc2ccc(Nc3ncc(F)c(-c4cc(F)c5nc(C)n(C(C)C)c5c4)n3)nc2)CC1 + CCN1C(C(=O)NC23CCC(C(=O)O)(CC2)CC3)C(c2cccc(Cl)c2F)C2(C(=O)Nc3cc(Cl)ccc32)C12CCCCC2	6.52

====

This section presents compounds with their documented viability, T/C values.
Tested on: MDA-MB-231 complex spheroids, growth inhibition
Test: Anticancer human tumor MDA-MB-231 cell line growth inhibition [Asc];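 also: spheroids exposed to compounds for 7 days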
Details: second compound 0.0316 µM; first compound 0.0316 µM; stronger effect = lower value

COMPOUND	viability, T/C, %
O=C(c1ccc(F)c(F)c1Nc1ccc(I)cc1F)N1CC(O)([C@@H]2CCCCN2)C1 + CNC(C)C(=O)NC1CN(S(=O)(=O)c2cccc(S(=O)(=O)N3CCC4CCC(C(=O)NC(c5ccccc5)c5ccccc5)N4C(=O)C(NC(=O)C(C)NC)C3)c2)CCC2CCC(C(=O)NC(c3ccccc3)c3ccccc3)N2C1=O	1.23
C=CC(=O)N1CCN(c2nc(=O)n(-c3c(C)ccnc3C(C)C)c3nc(-c4c(O)cccc4F)c(F)cc23)C(C)C1 (centres undefined) + CNC(C)C(=O)NC1CN(S(=O)(=O)c2cccc(S(=O)(=O)N3CCC4CCC(C(=O)NC(c5ccccc5)c5ccccc5)N4C(=O)C(NC(=O)C(C)NC)C3)c2)CCC2CCC(C(=O)NC(c3ccccc3)c3ccccc3)N2C1=O	1.6
C#Cc1c(F)ccc2cc(O)cc(-c3ncc4c(N5CC6CCC(C5)N6)nc(OCC56CCCN5CC(F)C6)nc4c3F)c12 (centres undefined) + CNC(C)C(=O)NC1CN(S(=O)(=O)c2cccc(S(=O)(=O)N3CCC4CCC(C(=O)NC(c5ccccc5)c5ccccc5)N4C(=O)C(NC(=O)C(C)NC)C3)c2)CCC2CCC(C(=O)NC(c3ccccc3)c3ccccc3)N2C1=O	1.62
O=C(c1cc(Cc2n[nH]c(=O)c3ccccc23)ccc1F)N1CCN(C(=O)C2CC2)CC1 + CNC(C)C(=O)NC1CN(S(=O)(=O)c2cccc(S(=O)(=O)N3CCC4CCC(C(=O)NC(c5ccccc5)c5ccccc5)N4C(=O)C(NC(=O)C(C)NC)C3)c2)CCC2CCC(C(=O)NC(c3ccccc3)c3ccccc3)N2C1=O	1.57
COc1c(OCCCN2CCOCC2)ccc2c3n(c(=NC(=O)c4cnc(N)nc4)nc12)CCN3 + CNC(C)C(=O)NC1CN(S(=O)(=O)c2cccc(S(=O)(=O)N3CCC4CCC(C(=O)NC(c5ccccc5)c5ccccc5)N4C(=O)C(NC(=O)C(C)NC)C3)c2)CCC2CCC(C(=O)NC(c3ccccc3)c3ccccc3)N2C1=O	1.48
C=C(F)C(=O)N1CCN(c2nc(OCC3CCCN3C)nc3c2CCN(c2cccc4cccc(Cl)c24)C3)CC1CC#N (centres undefined) + CNC(C)C(=O)NC1CN(S(=O)(=O)c2cccc(S(=O)(=O)N3CCC4CCC(C(=O)NC(c5ccccc5)c5ccccc5)N4C(=O)C(NC(=O)C(C)NC)C3)c2)CCC2CCC(C(=O)NC(c3ccccc3)c3ccccc3)N2C1=O	1.12
CCN1CCN(Cc2ccc(Nc3ncc(F)c(-c4cc(F)c5nc(C)n(C(C)C)c5c4)n3)nc2)CC1 + CNC(C)C(=O)NC1CN(S(=O)(=O)c2cccc(S(=O)(=O)N3CCC4CCC(C(=O)NC(c5ccccc5)c5ccccc5)N4C(=O)C(NC(=O)C(C)NC)C3)c2)CCC2CCC(C(=O)NC(c3ccccc3)c3ccccc3)N2C1=O	1.38
Cn1ncnc1[C@H]1c2n[nH]c(=O)c3cc(F)cc(c23)N[C@@H]1c1ccc(F)cc1 + CNC(C)C(=O)NC1CN(S(=O)(=O)c2cccc(S(=O)(=O)N3CCC4CCC(C(=O)NC(c5ccccc5)c5ccccc5)N4C(=O)C(NC(=O)C(C)NC)C3)c2)CCC2CCC(C(=O)NC(c3ccccc3)c3ccccc3)N2C1=O	1.2
NC1CCC(NC2CC2c2ccccc2)CC1 (centres undefined) + CNC(C)C(=O)NC1CN(S(=O)(=O)c2cccc(S(=O)(=O)N3CCC4CCC(C(=O)NC(c5ccccc5)c5ccccc5)N4C(=O)C(NC(=O)C(C)NC)C3)c2)CCC2CCC(C(=O)NC(c3ccccc3)c3ccccc3)N2C1=O	2.47
